Test: Tissue distribution in cynomolgus monkeys
Format: in vivo, cynomolgus monkeys (Macaca fascicularis)
Details: cynomolgus monkey, kidney / plasma, oral, 3 mg/kg/day
ASSAY ENDPOINT: Kp at 7 days
The response must contain the number and no unit.

# lookup: Kp at 7 days of Cc1cn2nc(-c3cc(=O)n4cc(N5CCNC6(CC6)C5)ccc4n3)cc(C)c2n1
10
